- Test system: Staphylococcus epidermidis
- assay text: Antimicrobial activity against Staphylococcus epidermidis ATCC 14990 assessed as zone of inhibition at 60 ug incubated overnight by agar well diffusion assay
- Format: functional
- conditions used: read-out: DIZ
Note to self: values exactly at 10 mm are true. So zone of inhibition at 60 µg/disc at or above 10 mm is true, below is false.

> print(dat)
                                   molecule    cat
1           O=c1cc(CCCCCCCCCO)[nH]c2ccccc12  false
2            CCCCCCCCCc1cc(=O)c2ccccc2[nH]1   true
3                    CCCCCc1cc(O)c2ccccc2n1   true
4  CC1(C)S[C@@H]2[C@H](NC(=O)Cc3ccccc3)C(=O)N2[C@H]1C(=O)O [PENICILLIN G]   true
5             O=c1cc(CCCCCCCO)[nH]c2ccccc12  false
6           CCCCCCCCCCc1cc(=O)c2ccccc2[nH]1   true

Data provenance is ChEMBL document CHEMBL5370668.
